Measured pKi (Sodium-dependent noradrenaline transporter (Homo sapiens))
One number for each entry, as −log10 of the molar value.

Worked cases, answers included:
| SMILES_RECORD | PROPERTY_LABEL | EXPERIMENTAL_RESULT |
| --- | --- | --- |
| COC(=O)[C@@H]1[C@H]2CC[C@H](C[C@H]1c1ccc(I)cc1)N2 | pKi | 8.70 |
| COC(=O)[C@@H]1[C@H]2CC[C@H](C[C@H]1c1ccc(C)c(F)c1)N2 | pKi | 8.75 |
| COC(=O)[C@@H]1[C@H]2CC[C@H](C[C@H]1c1ccc(C)cc1)N2 | pKi | 8.31 |
| C#Cc1ccc([C@@H]2C[C@H]3CC[C@@H](N3)[C@H]2C(=O)OC)cc1 | pKi | 8.73 |

**Query** I would be grateful if you could share the reported pKi for C=Cc1ccc([C@@H]2C[C@H]3CC[C@@H](N3)[C@H]2C(=O)OC)cc1 .
**Result** 8.33
